Test: Plasma vasopressin concentrations and pharmacokinetics after IV or IM vasopressin
Assay type: in vivo, neonatal piglets
Details: pig, plasma; 0.4 IU/kg IV, 10 min after administration; anesthetized piglets, arterial blood; n = 5/group; median (IQR); read-out: Plasma vasopressin concentration
Experimental: Following surgical instrumentation and stabilization, a consecutively numbered, sealed brown envelope containing the group allocation was opened (Figure 1). […] Demographics of study piglets were recorded. Transonic flow probes, heart rate, and pressure transducer outputs, and Millar catheter were digitized and recorded with LabChart® 8.1.30, programming software (ADInstruments, Houston, TX, USA). […] Since pigs produce lysine vasopressin, endogenous vasopressin concentrations could not be quantified. […]
PARAMETER_MEASURED: level at 10 min (ng/mL)
Report only the number, with the unit ng/mL understood.

Query: Requested field: level at 10 min. Item: `NC(=O)CC[C@@H]1NC(=O)[C@H](Cc2ccccc2)NC(=O)[C@H](Cc2ccc(O)cc2)NC(=O)[C@@H](N)CSSC[C@@H](C(=O)N2CCC[C@H]2C(=O)N[C@@H](CCCN=C(N)N)C(=O)NCC(N)=O)NC(=O)[C@H](CC(N)=O)NC1=O`
Result: 1.34
